- SUBJECT_OF_TEST: human GST-CLK1 (129-end) (Homo sapiens)
- Sequence (P49759 129-484 limits assumed): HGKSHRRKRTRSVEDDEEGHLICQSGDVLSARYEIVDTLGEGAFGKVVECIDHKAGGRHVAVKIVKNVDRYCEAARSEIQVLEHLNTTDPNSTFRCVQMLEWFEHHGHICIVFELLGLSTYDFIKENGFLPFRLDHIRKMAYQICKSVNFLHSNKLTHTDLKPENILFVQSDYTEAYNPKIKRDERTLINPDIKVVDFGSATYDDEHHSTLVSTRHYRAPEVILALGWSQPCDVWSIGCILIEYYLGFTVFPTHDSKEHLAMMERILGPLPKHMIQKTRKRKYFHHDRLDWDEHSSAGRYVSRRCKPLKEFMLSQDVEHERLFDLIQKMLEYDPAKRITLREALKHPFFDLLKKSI
pIC50: −log10 of the molar value.
READOUT_LABEL: pIC50

Reference set, count: 2
# COMPOUND, pIC50
rows = [
    ("N#Cc1c[nH]c2nc(Nc3ccc(C(=O)N4CCOCC4)c4c3OCCO4)cc(NC3CCCC3)c12", "6.00 to 6.52"),
    ("CCNc1cc(Nc2ccc(C(=O)N3CCC(N4CCOCC4)CC3)c3c2OCCO3)nc2[nH]cc(C#N)c12", "> 7.00"),
]

The measured pIC50 that CCCNc1cc(Nc2ccc(S(C)(=O)=O)cc2OC)nc2[nH]ccc12 showed for human GST-CLK1 (129-end) (Homo sapiens) is 6.00 to 6.52

pIC50 on human GST-CLK1 (129-end) (Homo sapiens) for CNc1cc(Nc2ccc(C(=O)N3C[C@@H]4C[C@H]3CO4)c3c2OCCO3)nc2[nH]cc(C(F)(F)F)c12 is > 7.00

* * *

Recorded measurements of IC50, one per entry
- SUBJECT_OF_TEST: UniProtKB Q5S007
- Sequence (Q5S007 970-2527 limits assumed): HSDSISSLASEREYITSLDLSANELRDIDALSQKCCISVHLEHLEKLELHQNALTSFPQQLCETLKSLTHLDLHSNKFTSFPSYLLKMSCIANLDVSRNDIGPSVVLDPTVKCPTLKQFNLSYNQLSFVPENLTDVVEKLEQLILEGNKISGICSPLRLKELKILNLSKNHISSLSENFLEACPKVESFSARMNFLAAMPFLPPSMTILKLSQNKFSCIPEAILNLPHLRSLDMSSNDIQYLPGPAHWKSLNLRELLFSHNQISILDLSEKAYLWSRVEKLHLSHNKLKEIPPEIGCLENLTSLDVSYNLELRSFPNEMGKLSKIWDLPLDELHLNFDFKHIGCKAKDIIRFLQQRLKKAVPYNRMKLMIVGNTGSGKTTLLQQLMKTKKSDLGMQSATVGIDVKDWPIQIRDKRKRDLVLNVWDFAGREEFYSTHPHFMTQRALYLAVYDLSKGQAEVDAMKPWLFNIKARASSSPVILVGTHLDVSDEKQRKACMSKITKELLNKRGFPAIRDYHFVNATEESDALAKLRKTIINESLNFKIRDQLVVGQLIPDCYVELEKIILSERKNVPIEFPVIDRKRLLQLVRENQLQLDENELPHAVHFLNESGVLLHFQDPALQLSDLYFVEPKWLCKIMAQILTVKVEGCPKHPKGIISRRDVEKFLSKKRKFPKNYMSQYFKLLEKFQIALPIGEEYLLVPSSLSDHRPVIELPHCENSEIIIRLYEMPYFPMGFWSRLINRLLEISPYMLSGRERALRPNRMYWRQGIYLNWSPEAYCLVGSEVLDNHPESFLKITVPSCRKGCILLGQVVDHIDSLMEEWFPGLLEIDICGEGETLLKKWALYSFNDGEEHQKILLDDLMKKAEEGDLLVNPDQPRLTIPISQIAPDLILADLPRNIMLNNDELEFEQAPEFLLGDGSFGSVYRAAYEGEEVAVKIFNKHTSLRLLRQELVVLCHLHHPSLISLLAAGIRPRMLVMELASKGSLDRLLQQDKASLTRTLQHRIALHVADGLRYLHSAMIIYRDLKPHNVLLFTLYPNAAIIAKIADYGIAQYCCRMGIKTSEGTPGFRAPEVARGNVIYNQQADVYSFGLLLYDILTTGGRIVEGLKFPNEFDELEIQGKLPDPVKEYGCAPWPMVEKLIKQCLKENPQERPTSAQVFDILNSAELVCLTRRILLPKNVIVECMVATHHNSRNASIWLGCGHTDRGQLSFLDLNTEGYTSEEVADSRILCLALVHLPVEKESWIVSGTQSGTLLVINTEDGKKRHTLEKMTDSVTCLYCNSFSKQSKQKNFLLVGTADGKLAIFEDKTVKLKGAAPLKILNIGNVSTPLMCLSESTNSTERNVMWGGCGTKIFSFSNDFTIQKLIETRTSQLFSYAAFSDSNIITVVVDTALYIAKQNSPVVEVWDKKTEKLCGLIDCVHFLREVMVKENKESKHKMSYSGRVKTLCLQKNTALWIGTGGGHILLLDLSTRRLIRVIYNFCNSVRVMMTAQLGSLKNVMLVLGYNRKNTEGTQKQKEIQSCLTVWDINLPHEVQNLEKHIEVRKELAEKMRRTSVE
- PROCEDURE_SUMMARY: LRRK2 enzyme inhibition, ADP-Glo kinase assay
- Type: biochemical
- Design: purchased Invitrogen PR8604B

# SMI, REPORTED_VALUE
rows = [
    ("COCCNc1cc(Nc2ccc(S(C)(=O)=O)cc2OC)nc2[nH]cc(C#N)c12", "< 100 nM"),
    ("CCNc1cc(Nc2ccc(C(=O)N3C[C@@H]4C[C@H]3CO4)c3c2OCCO3)nc2[nH]cc(C(F)(F)F)c12", "< 100 nM"),
    ("COc1cc(S(=O)(=O)N2CCC(N3CCOCC3)CC2)ccc1Nc1cc(NC2CCCCC2)c2c(C(F)(F)F)c[nH]c2n1", "301 to 1000 nM"),
]

Consider the record given below.
GET /value?item= COc1cc(S(C)(=O)=O)ccc1Nc1cc(NC2CCC2)c2c(C(F)(F)F)c[nH]c2n1 &field=IC50 returns 301 to 1000 nM

* * *

- SUBJECT_OF_TEST: TTK (Homo sapiens)
- Sequence (P33981 1-857): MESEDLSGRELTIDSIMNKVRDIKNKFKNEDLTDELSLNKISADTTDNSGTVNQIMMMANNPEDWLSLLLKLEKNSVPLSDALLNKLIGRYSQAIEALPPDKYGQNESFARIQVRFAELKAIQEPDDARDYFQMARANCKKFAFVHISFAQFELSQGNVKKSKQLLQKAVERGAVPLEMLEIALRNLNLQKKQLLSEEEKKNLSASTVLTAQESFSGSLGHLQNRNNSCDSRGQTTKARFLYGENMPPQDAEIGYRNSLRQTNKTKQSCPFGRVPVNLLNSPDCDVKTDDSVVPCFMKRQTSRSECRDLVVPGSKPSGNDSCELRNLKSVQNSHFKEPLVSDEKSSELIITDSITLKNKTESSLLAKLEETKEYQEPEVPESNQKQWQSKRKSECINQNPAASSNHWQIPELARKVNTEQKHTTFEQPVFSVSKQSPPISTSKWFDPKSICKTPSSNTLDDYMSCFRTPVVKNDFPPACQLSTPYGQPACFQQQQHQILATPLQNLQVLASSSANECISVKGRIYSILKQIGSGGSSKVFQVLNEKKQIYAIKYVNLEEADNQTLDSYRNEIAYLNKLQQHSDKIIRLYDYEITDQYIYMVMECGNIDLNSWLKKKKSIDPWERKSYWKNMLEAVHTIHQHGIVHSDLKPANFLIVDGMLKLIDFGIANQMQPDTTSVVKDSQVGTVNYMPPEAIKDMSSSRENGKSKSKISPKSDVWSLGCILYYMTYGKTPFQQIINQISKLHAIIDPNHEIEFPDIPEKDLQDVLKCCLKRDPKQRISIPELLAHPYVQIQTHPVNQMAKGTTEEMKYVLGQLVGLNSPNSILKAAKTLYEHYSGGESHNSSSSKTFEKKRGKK
READOUT_LABEL: IC50

# COMPOUND, SUBJECT_OF_TEST, READOUT_LABEL, REPORTED_VALUE
records = [
    ("CCNc1cc(Nc2ccc(C(=O)N3CCC(N4C[C@H]5C[C@@H]4CO5)CC3)c3c2OCC3)nc2[nH]cc(C(F)(F)F)c12 [Example 244]", "TTK (Homo sapiens)", "IC50", "< 0.1 µM"),
    ("O=C(c1ccc(Nc2cc(C3CC3)c3c(C(F)(F)F)c[nH]c3n2)c2c1OCO2)N1CCC(N2CCOCC2)CC1 [Example 49]", "TTK (Homo sapiens)", "IC50", "< 0.1 µM"),
]

Data point: COCCNc1cc(Nc2ccc(C(=O)N3CCC(N4CCOCC4)CC3)c3c2OCC3)nc2[nH]cc(C(F)(F)F)c12 [Example 55] ; IC50 = 0.101 to 0.3 µM

Entry under test: O=C(c1ccc(Nc2cc(C3CC3)c3c(C(F)(F)F)c[nH]c3n2)c2c1CCO2)N1CCOCC1 [Example 91] . Its IC50 was 0.301 to 1 µM
